# TARGET_OR_SYSTEM: HA-GST-Rheb (GTP-γ-S loaded) activating mTORC1 (Homo sapiens (Human))
# PROTOCOL_TEXT: Rheb-dependent in vitro kinase assay (Rheb-IVK; LanthaScreen or Western readout)
# Format: biochemical
# CONDITION_NOTES: Rheb-dependent in vitro kinase assay; read-out: IVK IC50
Catalogue of IC50 readings, one per entry.

Completed entries (count: 9):
1) CC(C)(C)OC(=O)N1CCN(c2cc(-c3nc4cc(Cl)c(Cl)cc4[nH]3)ccn2)CC1 ... > 100 µM
2) OCc1cc2ccc(Sc3ccc(Cl)cc3)cc2n1Cc1nc[nH]n1 ... > 100 µM
3) CCn1c(CO)nc2cc(Cl)c(OCc3ccccc3)cc21 ... > 100 µM
4) CCn1c(CO)nc2cc(Cl)c(OCc3cccc(Cl)c3)cc21 ... > 100 µM
5) OCc1nc2cc(OCCc3ccccc3)c(Cl)cc2[nH]1 ... 300 to 800 µM
6) O=C(O)c1nc2cc(OCc3ccc(Cl)cc3)c(Cl)cc2[nH]1 ... 10 to 100 µM
7) OCc1cc2ccc(Oc3ccccc3)cc2n1Cc1nc[nH]n1 ... > 100 µM
8) CN1CC(NC(=O)c2cc3c(Sc4ccc(Cl)cc4)cc(Cl)cc3[nH]2)C1 ... < 10 µM
9) OCc1cc2c(Oc3cccc(F)c3)cccc2[nH]1 ... > 100 µM

// switching to the query compound
So, CN1CCN(c2ccc(NC(=O)c3cc4c(Sc5ccc(Cl)cc5Cl)cc(Cl)cc4[nH]3)cc2F)CC1 ? Its IC50 was < 10 µM

---

Catalogue of pIC50 readings, one per entry.
# TARGET_OR_SYSTEM: UniProt Q15382
# PROTOCOL_TEXT: Rheb-dependent in vitro kinase assay (Rheb-IVK; LanthaScreen or Western readout)
# Assay type: biochemical
# CONDITION_NOTES: Rheb-dependent in vitro kinase assay; read-out: IVK IC50
pIC50: −log10 of the molar value.

Completed entries (count: 4):
1) Nc1ncncc1COc1c(Cl)c(Cl)cc2[nH]c(CO)nc12 ... < 4.00
2) OCCc1cc2c(Oc3ccccc3)c(Cl)ccc2[nH]1 ... 4.00 to 5.00
3) OCc1cc2c(Br)cc(Oc3ccccc3)cc2n1Cc1ccc(-c2nn[nH]n2)cc1 ... < 4.00
4) OCc1nc2cc(OCc3cccc(F)c3)c(Cl)cc2[nH]1 ... 3.52 to 4.00

// switching to the query compound
So, OCc1nc2c(OC[C@H]3CCCC[C@@H]3O)c(Cl)c(Cl)cc2[nH]1 (racemic) [I-383] ? Its pIC50 was 4.00 to 5.00

---

Catalogue of IC50 readings, one per entry.
# TARGET_OR_SYSTEM: HA-GST-Rheb (GTP-γ-S loaded) activating mTORC1 (Homo sapiens (Human), UniProt Q15382)
# Sequence (Q15382 1-181): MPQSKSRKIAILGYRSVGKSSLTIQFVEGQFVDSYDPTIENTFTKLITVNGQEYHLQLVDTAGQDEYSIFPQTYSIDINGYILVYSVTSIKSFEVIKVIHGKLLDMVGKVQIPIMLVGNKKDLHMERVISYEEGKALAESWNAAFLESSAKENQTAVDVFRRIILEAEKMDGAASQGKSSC
# PROTOCOL_TEXT: Rheb-dependent in vitro kinase assay (Rheb-IVK; LanthaScreen or Western readout)
# Format: biochemical
# CONDITION_NOTES: Rheb-dependent in vitro kinase assay; read-out: IVK IC50

So, OCc1nc2cc(OCc3ccc(F)cc3)c(Cl)cc2[nH]1 ? Its IC50 was 100 to 300 µM

So, OCc1nc2cc(OCc3ccc(OC(F)(F)F)cc3)c(Cl)c(Cl)c2[nH]1 ? Its IC50 was > 3 µM

So, CC(=O)OCCc1cc2c(Oc3ccccc3)c(Cl)ccc2[nH]1 ? Its IC50 was > 100 µM

So, O=C(O)c1cc2c(Oc3ccc(C4CCCCC4)cc3)cc(Cl)cc2[nH]1 ? Its IC50 was < 10 µM

So, O=C(c1cc2c(Sc3ccc(Cl)cc3Cl)cc(Cl)cc2[nH]1)N1CCNCC1 ? Its IC50 was 10 to 100 µM

So, Clc1ccc(Oc2cccc3[nH]ccc23)cc1 ? Its IC50 was 100 to 300 µM

So, CN(C)C(=O)c1ccc(Cn2c(C(=O)O)cc3c(Br)cc(SC4CCOCC4)cc32)cc1 ? Its IC50 was 10 to 100 µM

So, OCc1nc2cc(Cl)c(OCc3ccccc3)cc2n1Cc1ccc(-c2nnn[nH]2)cc1 ? Its IC50 was 10 to 100 µM

So, COC(=O)c1cc2c(Sc3ccc(Cl)cc3Cl)cc(Cl)cc2n1Cc1ccc(Br)cc1 ? Its IC50 was > 100 µM

---

Catalogue of pIC50 readings, one per entry.
# TARGET_OR_SYSTEM: HA-GST-Rheb (GTP-γ-S loaded) activating mTORC1 (Homo sapiens (Human), UniProt Q15382)
# PROTOCOL_TEXT: Rheb-dependent in vitro kinase assay (Rheb-IVK; LanthaScreen or Western readout)
# Assay type: biochemical
# CONDITION_NOTES: Rheb-dependent in vitro kinase assay; read-out: IVK IC50
pIC50: −log10 of the molar value.

Completed entries (count: 2):
1) Clc1cc2nc(-c3ccncc3)[nH]c2c(Cl)c1Cl ... < 5.52
2) CCn1c(CO)nc2cc(Cl)c(OCc3cccc(F)c3)cc21 ... < 4.00

// switching to the query molecule
So, NC(=O)Cn1c(CO)nc2cc(OCc3ccccc3)c(Cl)cc21 ? Its pIC50 was 3.52 to 4.00

---

# TARGET_OR_SYSTEM: HA-GST-Rheb (GTP-γ-S loaded) activating mTORC1 (Homo sapiens (Human))
# PROTOCOL_TEXT: Rheb-dependent in vitro kinase assay (Rheb-IVK; LanthaScreen or Western readout)
# Assay type: biochemical
# CONDITION_NOTES: Rheb-dependent in vitro kinase assay; read-out: IVK IC50
MEASURED_QUANTITY: IC50

1) O[C@@H]1CCC[C@H](COc2c(Cl)c(Cl)cc3[nH]c(-c4ccncc4)nc23)C1 ... > 3 µM
2) CN1CCN(c2ccc(NC(=O)c3cc4c(Br)cc(Sc5ccc(Cl)c(Cl)c5)cc4[nH]3)cc2)CC1 ... 10 to 100 µM
3) Nc1nccc(COc2c(Cl)c(Cl)cc3[nH]c(CO)nc23)n1 ... > 100 µM
4) Clc1ccc(Sc2cc(Cl)c3cc[nH]c3c2)cc1 ... 10 to 100 µM
5) Cc1ccc(Oc2cc(Cl)cc3[nH]c(CO)cc23)cc1C(F)(F)F ... < 10 µM

So, OCc1cc2c(Br)cc(SCc3ccc(Cl)cc3)cc2[nH]1 ? Its IC50 was 10 to 100 µM

So, O=C(NO)c1cc2c(Sc3ccc(Cl)cc3)cc(Cl)cc2[nH]1 ? Its IC50 was 10 to 100 µM

---

Catalogue of pIC50 readings, one per entry.
# TARGET_OR_SYSTEM: HA-GST-Rheb (GTP-γ-S loaded) activating mTORC1 (Homo sapiens (Human), UniProt Q15382)
# PROTOCOL_TEXT: Rheb-dependent in vitro kinase assay (Rheb-IVK; LanthaScreen or Western readout)
# Format: biochemical
# CONDITION_NOTES: Rheb-dependent in vitro kinase assay; read-out: IVK IC50
pIC50: −log10 of the molar value.

1) OCc1nc2cc(OCc3ccc(Cl)cc3)c(Cl)cc2[nH]1 ... < 4.00
2) O=C1CCC(COc2c(Cl)c(Cl)cc3[nH]c(CO)nc23)N1 (stereo not drawn) ... < 4.00
3) CNCc1cc2c(Br)cc(Sc3ccc(Cl)c(Cl)c3)cc2n1Cc1ccc(C(=O)N(C)C)cc1 ... < 4.00

So, CN1CCN(C(=O)c2cc3c(Sc4ccc(Cl)cc4)cc(Cl)cc3[nH]2)CC1 ? Its pIC50 was < 4.00

So, CN(C)C(=O)c1ccc(Cn2c(C(=O)O)cc3c(Br)nc(Sc4ccc(Cl)c(Cl)c4)cc32)cc1 ? Its pIC50 was 4.00 to 5.00

So, Cn1ccc2c(Oc3ccc(Cl)cc3)cccc21 ? Its pIC50 was < 4.00

So, CCn1c(CO)nc2cc(OCc3cccc(F)c3)c(Cl)cc21 ? Its pIC50 was < 4.00

So, O=S(=O)(c1ccccc1)c1cc(Br)c2cc(CO)[nH]c2c1 ? Its pIC50 was < 4.00

So, Cn1ccc2c(Oc3ccccc3F)cccc21 ? Its pIC50 was < 5.52

---

# TARGET_OR_SYSTEM: UniProt:Q15382
# PROTOCOL_TEXT: Rheb-dependent in vitro kinase assay (Rheb-IVK; LanthaScreen or Western readout)
# Format: biochemical
# CONDITION_NOTES: Rheb-dependent in vitro kinase assay; read-out: IVK IC50
Catalogue of IC50 readings, one per entry.

Completed entries (count: 5):
1) CN(C)c1cc(-c2nc3cc(Cl)c(Cl)cc3[nH]2)ccn1 ... > 100 µM
2) CN(C)C(=O)c1ccc(Cn2c(C(=O)O)cc3c(Br)cc(SC4CCCCC4)cc32)cc1 ... > 3 µM
3) CN1CCC(CCNC(=O)c2cc3c(Sc4ccc(Cl)cc4)cc(Cl)cc3[nH]2)CC1 ... < 10 µM
4) OCc1cc2c(OCCc3ccccc3)cc(Cl)cc2[nH]1 ... > 100 µM
5) O=C(O)c1cc2c(Sc3ccc(Cl)cc3Cl)cc(Cl)cc2[nH]1 ... < 10 µM

So, CN(C)C(=O)c1ccc(Cn2c(C(=O)O)cc3ccc(Sc4ccc(Oc5ccccc5)cc4)cc32)cc1 ? Its IC50 was < 10 µM

So, CCn1c(CO)nc2cc(Cl)c(OCc3ccccc3Cl)cc21 ? Its IC50 was > 100 µM

So, OCc1cc2c(Oc3ccc(Cl)cc3)cccc2[nH]1 ? Its IC50 was 10 to 100 µM

So, CN(C)C(=O)c1ccc(Cn2c(C(=O)O)cc3c(Br)cc(Sc4ccc5ccccc5c4)cc32)cc1 ? Its IC50 was < 10 µM
